TARGET_OR_SYSTEM: B1-AR (Homo sapiens)
Construct: expressed in transfected cells; host or cells: CHO-K1
Sequence (P08588 whole entry, species assumed): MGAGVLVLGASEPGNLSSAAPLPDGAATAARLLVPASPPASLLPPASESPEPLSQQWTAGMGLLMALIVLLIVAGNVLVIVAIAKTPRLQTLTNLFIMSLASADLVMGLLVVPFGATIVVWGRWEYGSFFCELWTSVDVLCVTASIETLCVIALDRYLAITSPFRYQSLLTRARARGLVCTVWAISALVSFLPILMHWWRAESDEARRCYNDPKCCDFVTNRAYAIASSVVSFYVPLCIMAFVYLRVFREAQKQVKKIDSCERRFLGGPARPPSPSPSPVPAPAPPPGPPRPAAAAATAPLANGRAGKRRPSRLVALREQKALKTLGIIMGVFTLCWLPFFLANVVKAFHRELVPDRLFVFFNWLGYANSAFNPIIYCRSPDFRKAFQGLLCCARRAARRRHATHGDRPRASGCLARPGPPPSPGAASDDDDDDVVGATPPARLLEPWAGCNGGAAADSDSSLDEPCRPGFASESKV
PROTOCOL_NOTES: cAMP Gs dynamic HTRF assay, cells expressing beta-adrenergic receptor (CHO-K1), B1-AR
Assay type: cell-based
COND: cAMP HTRF, read-out: pEC50 [B1-AR] (converted)

{"SMILES_CODE": "CCC(C)(C)NC[C@H](O)c1ccc(F)c2[nH]ncc12", "EC50": "< 10 nM"}
{"SMILES_CODE": "CC(C)C(C)(C)NC[C@H](O)c1cccc2[nH]nc(F)c12", "EC50": "< 10 nM"}
{"SMILES_CODE": "C[C@@H](NC[C@H](O)c1ccc(F)c2[nH]ncc12)C1CC1", "EC50": "< 10 nM"}
